# test-system: feline FcRn complex (FcRn-α subunit and β-microglobulin), biotin labeled (feline)
# measurement-description: SPR, pH 6
recorded-endpoint: Kd (nM)
One number for each entry, in nM.

Can you share its Kd? I mean this binder: feline IgG1a S252Y/Q311W/S434Y (antibody, part only; not given: Variable domains, not shown: another chain or arm of the molecule) constant: ASTTAPSVFPLAPSCGTTSGATVALACLVLGYFPEPVTVSWNSGALTSGVHTFPAVLQASGLYSLSSMVTVPSSRWLSDTFTCNVAHPPSNTKVDKTVRKTDHPPGPKPCDCPKCPPPEMLGGPSIFIFPPKPKDTLYISRTPEVTCLVVDLGPDDSDVQITWFVDNTQVYTAKTSPREEQFNSTYRVVSVLPILHWDWLKGKEFKCKVNSKSLPSPIERTISKAKGQPHEPQVYVLPPAQEELSRNKVSVTCLIKSFHPPDIAVEWEITGQPEPENNYRTTPPQLDSDGTYFVYSKLSVDRSHWQRGNTYTCSVSHEALHYHHTQKSLTQSPGK
97.2
